# TARGET_ENTITY: Cholinesterase (Homo sapiens)
# PROCEDURE_DETAILS: Inhibition of recombinant human BuChE using butyrylthiocholine iodide as substrate preincubated with enzyme for 5 mins followed by substrate addition and measured after 1 min by Ellman's method
As shown below, each of these molecules has a reported pIC50 value.
// field semantics: pIC50 = negative decimal log of concentration (mol/L)

SMILES_NOTATION	pIC50
COc1ccccc1CCNCc1cccc(OC)c1OCc1ccccc1	6.10

Sample "COc1cccc(CN(CCCc2ccccc2F)C2CCC2)c1OCc1ccccc1" ; pIC50 observed: 8.40

----------
# PROCEDURE_DETAILS: Cytotoxicity against human HepG2 cells assessed as inhibition of cell growth incubated for 24 hrs by MTT assay
# Assay type: toxicity, cell-based
As shown below, each of these molecules has a reported IC50 at 24 h value.

Examples with answers:
SMILES_NOTATION	IC50 at 24 h
CCCN(CCCc1ccc(O)cc1)Cc1cccc(OC)c1OCc1ccccc1	31 µM
CCCN(CCc1ccc(O)cc1)Cc1cccc(OC)c1OCc1ccccc1	43 µM
COc1cccc(CN(CCCc2ccccc2F)C2CCC2)c1OCc1ccccc1	76 µM

Sample "C=CCCN(CCCc1ccccc1)Cc1cccc(OC)c1OCc1ccccc1" ; IC50 at 24 h observed: 92 µM

Sample "CCCN(CCCc1cccc(F)c1)Cc1cccc(OC)c1OCc1ccccc1" ; IC50 at 24 h observed: 41 µM

Sample "CCN(CCCc1ccccc1)Cc1cccc(OC)c1OCc1ccccc1" ; IC50 at 24 h observed: 23 µM

Sample "C=CCN(CCCc1ccccc1)Cc1cccc(OC)c1OCc1ccccc1" ; IC50 at 24 h observed: > 200 µM

----------
# TARGET_ENTITY: Cholinesterase (Homo sapiens, UniProt P06276)
# Sequence (P06276 whole entry): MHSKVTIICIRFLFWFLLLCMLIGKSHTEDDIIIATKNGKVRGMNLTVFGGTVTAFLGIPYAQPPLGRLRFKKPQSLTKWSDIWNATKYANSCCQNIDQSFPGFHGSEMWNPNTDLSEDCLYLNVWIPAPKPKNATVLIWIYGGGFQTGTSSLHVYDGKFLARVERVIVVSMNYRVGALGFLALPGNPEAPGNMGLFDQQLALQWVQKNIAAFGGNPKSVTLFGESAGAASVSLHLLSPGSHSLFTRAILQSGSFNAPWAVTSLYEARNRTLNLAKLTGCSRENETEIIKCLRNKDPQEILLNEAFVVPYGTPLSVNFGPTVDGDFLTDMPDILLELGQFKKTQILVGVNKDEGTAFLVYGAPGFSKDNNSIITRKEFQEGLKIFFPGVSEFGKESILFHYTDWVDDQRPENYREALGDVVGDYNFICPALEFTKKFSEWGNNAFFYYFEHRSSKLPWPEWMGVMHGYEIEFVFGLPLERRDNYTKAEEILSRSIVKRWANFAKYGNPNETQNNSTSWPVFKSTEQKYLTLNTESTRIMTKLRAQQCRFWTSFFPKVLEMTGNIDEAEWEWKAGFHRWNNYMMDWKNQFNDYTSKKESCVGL
# PROCEDURE_DETAILS: Inhibition of human BuChE using butyrylthiocholine iodide as substrate incubated for 1 min by spectrophotometry based Ellman's method
MEASUREMENT_KIND: IC50 (nM)
All answers are understood in nM, so give the number only.

Sample "COc1cc(CN(C)CCc2ccc(O)cc2)c(-c2cccc3c2N(C)CC3)cc1OC" ; IC50 observed: 910

----------
# TARGET_ENTITY: Cholinesterase (Homo sapiens, UniProt P06276)
# PROCEDURE_DETAILS: Inhibition of recombinant human BuChE using butyrylthiocholine iodide as substrate at 10 uM preincubated with enzyme for 5 mins followed by substrate addition and measured after 1 min by Ellman's method relative to control
# RECORDED_CONDITIONS: time 6.0 min
condition met means recorded inhibition is 90% or above; condition not met means it is below 90%.

SMILES_NOTATION	TARGET_ENTITY	LABEL_CLASS
COc1cccc(CNCCc2ccc(O)cc2)c1OCc1ccccc1	Cholinesterase (Homo sapiens, UniProt P06276)	condition met
CCCN(CCc1ccc(OC)cc1)Cc1cccc(OC)c1OCc1ccccc1	Cholinesterase (Homo sapiens, UniProt P06276)	condition not met
CCCN(CCCc1ccccc1F)Cc1cccc(OC)c1OCc1ccccc1	Cholinesterase (Homo sapiens, UniProt P06276)	condition met
COc1ccc(CCN(C)Cc2cccc(OC)c2OCc2ccccc2)cc1	Cholinesterase (Homo sapiens, UniProt P06276)	condition not met

Kindly review the next compound as well.
query: Is it the case that "COc1cccc(CN(CCCc2ccccc2F)C2CCCC2)c1OCc1ccccc1" has inhibition reaching or exceeding 90%?
result: condition met
